Each entry below carries its reported Kd.
- System: Recombinant human IL-17A/F heterodimer (UniProt Q16552 24-155; Q96PD4 31-163)
- Sequence (Q16552 24-155, chain 1 of 2): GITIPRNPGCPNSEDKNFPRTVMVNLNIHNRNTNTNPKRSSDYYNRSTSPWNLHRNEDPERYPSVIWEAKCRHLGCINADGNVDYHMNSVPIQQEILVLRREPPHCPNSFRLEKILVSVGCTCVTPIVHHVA
- Sequence (Q96PD4 31-163, chain 2 of 2): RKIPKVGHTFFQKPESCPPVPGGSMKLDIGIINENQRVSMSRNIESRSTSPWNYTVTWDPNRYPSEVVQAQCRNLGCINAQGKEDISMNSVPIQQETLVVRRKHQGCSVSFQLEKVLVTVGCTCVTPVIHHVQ
- Assay Details: BIAcore
Express your answer in nM, writing the number without its unit.

In the examples that follow, each entry is paired with its recorded Kd.
Binder	Assay Metric	Scale Unit	Reported
YW278.15.9 (antibody, V domains shown) VH: EVQLVESGGGLVQPGGSLRLSCAASGFTFTDYDISWVRQAPGKGLEWVASIDPYEGYTYYADSVKGRFTISADTSKNTAYLQMNSLRAEDTAVYYCARYLYWSYVMDYWGQGTLVTVSS VL: DIQMTQSPSSLSASVGDRVTITCRASQDVSTAVAWYQQKPGKAPKLLIYSASFLYSGVPSRFSGSGSGTDFTLTISSLQPEDFATYYCQQSQNPQTTFGQGTKVEIKR	Kd	nM	0.0229
YW278.15.3 (antibody, V domains shown) VH: EVQLVESGGGLVQPGGSLRLSCAASGFTFTDYDISWVRQAPGKGLEWVASISPSDGYTYYADSVKGRFTISADTSKNTAYLQMNSLRAEDTAVYYCARYLYWSYVMDYWGQGTLVTVSS VL: DIQMTQSPSSLSASVGDRVTITCRASQVISSSLAWYQQKPGKAPKLLIYGASFFYSGVPSRFSGSGSGTDFTLTISSLQPEDFATYYCQQHNDLPLTFGQGTKVEIKR	Kd	nM	0.0935
YW279.1.21 (antibody, V domains shown) VH: EVQLVESGGGLVQPGGSLRLSCAASGFSFTSYMMSWVRQAPGKGLEWVSTIYPESGATDYADSVKGRFTISADTSKNTAYLQMNSLRAEDTAVYYCAREGYYYSTSIKYYPWFDYWGQGTLVTVSS VL: DIQMTQSPSSLSASVGDRVTITCRASQSISSYLAWYQQKPGKAPKLLIYGASSRASGVPSRFSGSGSGTDFTLTISSLQPEDFATYYCQQRYSWHTTFGQGTKVEIKR	Kd	nM	11.8

stdin: Indicate its recorded Kd; the binder in question is YW279.1.22 (antibody, V domains shown) VH: EVQLVESGGGLVQPGGSLRLSCAASGFSFPSYFISWVRQAPGKGLEWVSMIYPVSGATVYADSVKGRFTISADTSKNTAYLQMNSLRAEDTAVYYCAREGYYYSTSIKYYPWFDYWGQGTLVTVSS VL: DIQMTQSPSSLSASVGDRVTITCRASQSISSYLAWYQQKPGKAPKLLIYGASSRASGVPSRFSGSGSGTDFTLTISSLQPEDFATYYCQQRYSLPITFGQGTKVEIKR
stdout: 0.69
